All values here come from patent US10189788B2.

target: Human FP Receptor (Homo sapiens (Human), UniProt P43088); assay: In vitro test of inhibition of human FP receptor activity, variant B-1A (PGF2α-induced calcium flux in FP-expressing CHEM1 cells); type: cell-based; conditions: calcium flux induced by 3 nM PGF2α, Fluo-8, some mean values from multiple determinations
Sequence (P43088 whole entry): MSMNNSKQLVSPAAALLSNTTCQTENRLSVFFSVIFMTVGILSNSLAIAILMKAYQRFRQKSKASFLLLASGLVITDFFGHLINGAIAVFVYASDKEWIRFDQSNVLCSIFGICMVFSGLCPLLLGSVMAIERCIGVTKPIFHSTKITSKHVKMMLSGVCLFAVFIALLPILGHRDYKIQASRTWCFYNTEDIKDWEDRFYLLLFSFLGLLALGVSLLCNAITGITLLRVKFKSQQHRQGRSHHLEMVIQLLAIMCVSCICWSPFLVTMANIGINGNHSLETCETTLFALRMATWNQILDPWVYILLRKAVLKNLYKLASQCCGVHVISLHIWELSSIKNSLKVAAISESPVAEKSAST

[
  {
    "CHEMICAL SMILES": "Cc1c(-c2ccccc2)nc2ccc(Br)cc2c1C(=O)Nc1cnc(C(=O)O)cn1",
    "UNIT SPEC": "nM",
    "IC50": 170
  },
  {
    "CHEMICAL SMILES": "Cc1c(-c2ccccc2)nc2ccc(Br)cc2c1C(=O)Nc1ccc(C(N)=O)cc1F",
    "UNIT SPEC": "nM",
    "IC50": 102
  },
  {
    "CHEMICAL SMILES": "O=C(O)c1ccc(NC(=O)c2c(C(F)F)c(-c3ccccc3)nc3ccc(Br)cc23)c(F)c1",
    "UNIT SPEC": "nM",
    "IC50": 265
  },
  {
    "CHEMICAL SMILES": "Cc1c(-c2ccccc2)nc2ccc(Br)c(Cl)c2c1C(=O)Nc1ccc(C(=O)O)cc1F",
    "UNIT SPEC": "nM",
    "IC50": 49
  },
  {
    "CHEMICAL SMILES": "CCS(=O)(=O)c1cc(C(=O)O)c(OC)cc1NC(=O)c1c(C)c(-c2ccccc2)nc2ccc(Br)cc12",
    "UNIT SPEC": "nM",
    "IC50": 97
  },
  {
    "CHEMICAL SMILES": "Cc1c(-c2ccccc2)nc2ccc(Br)cc2c1C(=O)Nc1ccc(C(=O)O)cc1C#N",
    "UNIT SPEC": "nM",
    "IC50": 278
  },
  {
    "CHEMICAL SMILES": "Cc1c(-c2ccccc2)nc2ccc(C(F)(F)F)cc2c1C(=O)Nc1ccc(C(=O)O)cc1F",
    "UNIT SPEC": "nM",
    "IC50": 93
  },
  {
    "CHEMICAL SMILES": "Cc1c(-c2ccccc2)nc2ccc(Br)cc2c1C(=O)Nc1ccc(C(=O)O)cc1Cl",
    "UNIT SPEC": "nM",
    "IC50": 65
  }
]

---

This section presents molecules with their documented pIC50 values.
molecular target: Human FP Receptor (Homo sapiens (Human)); experiment: In vitro test of inhibition of human FP receptor activity, variant B-1A (PGF2α-induced calcium flux in FP-expressing CHEM1 cells); format: cell-based; details: calcium flux induced by 3 nM PGF2α, Fluo-8, some mean values from multiple determinations
pIC50: −log10 of the molar value.
MEASUREMENT TYPE: pIC50

[
  {
    "CHEMICAL SMILES": "Cc1c(-c2ccccc2)nc2ccc(Br)cc2c1C(=O)Nc1ccc(C(=O)NS(=O)(=O)N(C)C)cc1F",
    "DATA VALUE": 6.50
  },
  {
    "CHEMICAL SMILES": "Cc1c(C(=O)Nc2ccc(C(=O)O)cc2F)c2cc(Br)ccc2[n+]([O-])c1-c1ccccc1",
    "DATA VALUE": 6.92
  },
  {
    "CHEMICAL SMILES": "Cc1c(-c2ccccc2)nc2cc(Cl)c(Cl)cc2c1C(=O)Nc1ccc(C(=O)O)cc1F",
    "DATA VALUE": 7.48
  },
  {
    "CHEMICAL SMILES": "Cc1c(-c2ccccc2)nc2ccc(Br)cc2c1C(=O)Nc1ccc(C(=O)O)cc1C(F)(F)F",
    "DATA VALUE": 7.35
  }
]
